Hey, just so you know, these numbers are from ChEMBL document CHEMBL1275368.

# study_target: Genome polyprotein (Coxsackievirus B3 (strain Nancy), UniProt P03313)
# Sequence (P03313 1541-1723 limits assumed): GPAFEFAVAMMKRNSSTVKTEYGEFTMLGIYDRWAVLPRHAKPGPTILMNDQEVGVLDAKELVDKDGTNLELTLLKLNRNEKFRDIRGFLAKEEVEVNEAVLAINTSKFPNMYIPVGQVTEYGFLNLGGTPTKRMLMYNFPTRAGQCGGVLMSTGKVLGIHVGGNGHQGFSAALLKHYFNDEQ
# measurement_description: Inhibition of coxsackievirus B3 3C protease by fluorescence plate reader analysis
Attribute: pIC50
Scale explanation: pIC50 corresponds to minus log10 of a concentration expressed in moles per litre.

chemical_string | pIC50
O=C(O)c1ccc(/C=C2\C(=O)N(c3cccc(Cl)c3)N=C2c2ccccc2)cc1 | 4.76

### Prompt Record request: pIC50 value, item "O=C(O)c1ccc(/C=C2\C(=O)N(c3ccc(OC(F)(F)F)cc3)N=C2c2ccccc2)cc1"
### Response 4.01

* * *

# study_target: Genome polyprotein (Coxsackievirus B3 (strain Nancy))
# measurement_description: Inhibition of coxsackievirus B3 3C protease by fluorescence plate reader analysis
experimental_endpoint: IC50 (µM)
Give a bare numeral; the unit µM is implied.

Consider the following illustrative entries.
chemical_string | experimental_endpoint | value_units | reading
O=C(O)c1ccc(/C=C2\C(=O)N(c3ccccc3)N=C2c2ccccc2)cc1 | IC50 | µM | 51.1
N#Cc1ccc(N2N=C(c3ccccc3)/C(=C/c3ccc(C(=O)O)cc3)C2=O)cc1 | IC50 | µM | 20.8

API: the following record is the query input.
### Prompt So what IC50 did "O=C(O)c1ccc(/C=C2\C(=O)N(c3ccc(F)cc3)N=C2c2ccccc2)cc1" get with Genome polyprotein (Coxsackievirus B3 (strain Nancy))?
### Response 22.4
